Below are pIC50 values measured for purified DHFR of the opportunistic pathogen P. carinii (Pneumocystis carinii).
pIC50: −log10 of the molar value. Where a name gives a salt, the structure may show the parent alone.

compound | testSystem | pIC50
COc1cc(Cc2cnc(N)nc2N)cc(C#Cc2ccc3c(=O)c(C(=O)O)cn(C(C)(C)C)c3c2)c1OC [Example 16ac, hydrochloride] | purified DHFR of the opportunistic pathogen P. carinii (Pneumocystis carinii) | 6.72
COc1cc(Cc2cnc(N)nc2N)cc(C#Cc2ccc3cc(C(=O)O)ccc3c2)c1OC [Example 16j, hydrochloride] | purified DHFR of the opportunistic pathogen P. carinii (Pneumocystis carinii) | 5.30
Nc1ncc(Cc2cccc(-c3cc4c(cc3F)c(=O)c(C(=O)O)cn4C3CC3)c2)c(N)n1 [Example 9c] | purified DHFR of the opportunistic pathogen P. carinii (Pneumocystis carinii) | 6.70
COc1cc(Cc2cnc(N)nc2N)cc(C#Cc2cc3c(cc2F)c(=O)c(C(=O)O)cn3C2CC2)c1OC [Example 16e, trifluoroacetate] | purified DHFR of the opportunistic pathogen P. carinii (Pneumocystis carinii) | 5.47
